// values below are reported EC50
molecular target: GLP-1R (Homo sapiens); experiment: GLP-1R activation: cAMP increase in CHO cells stably expressing GLP-1R; type: cell-based; conditions: cAMP increase, CHO cells stably expressing GLP-1R, 10 point dose response, 30 minutes incubation; read-out: EC50
Sequence (P43220 24-463): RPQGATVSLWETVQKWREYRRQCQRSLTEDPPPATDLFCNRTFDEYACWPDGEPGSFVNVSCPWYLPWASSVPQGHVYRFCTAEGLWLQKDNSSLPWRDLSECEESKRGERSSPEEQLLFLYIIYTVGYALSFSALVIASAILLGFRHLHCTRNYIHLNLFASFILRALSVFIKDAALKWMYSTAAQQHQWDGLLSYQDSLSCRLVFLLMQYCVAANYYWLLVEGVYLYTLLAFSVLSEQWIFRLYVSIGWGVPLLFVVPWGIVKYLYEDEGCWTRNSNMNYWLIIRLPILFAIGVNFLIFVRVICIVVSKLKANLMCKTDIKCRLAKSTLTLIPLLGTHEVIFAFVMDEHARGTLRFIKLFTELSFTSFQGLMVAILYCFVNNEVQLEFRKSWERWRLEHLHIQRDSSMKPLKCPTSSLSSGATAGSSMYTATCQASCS
Measured Parameter: EC50 (nM)

> print(dat)
                                   molecule  units.of.measure  recorded.result
1  N#Cc1cc(F)c(COc2nc(-c3cc(F)c(Cc4nc5c(F)cc(C(=O)O)cc5n4C[C@@H]4CCO4)cc3F)ccc2F)cc1F [Example 766]                nM             0.13
2  COCCn1c(Cc2ccc(-c3ccc(F)c(OCc4ccc(C#N)cc4F)n3)cc2F)nc2ccc(C(=O)O)cc21 [Example 87]                nM             5.66
3  O=C(O)c1ccc2nc(Cc3cc(F)c(-c4ccnc(OCc5ccc(C(F)F)cc5F)n4)cc3F)n(CC34CC(CO3)C4)c2c1 [Example 671]                nM             1.76
4  COCCn1c(Cc2ccc(-c3cccc(OCc4ccccc4F)n3)cc2F)nc2ccc(C(=O)O)cc21 [Example 514]                nM             60.8
5  COCCn1c(Cc2cc(F)c(-c3cccc(OCc4ccc(C#N)cc4F)n3)cc2CO)nc2ccc(C(=O)O)cc21 [Example 753]                nM             0.74
6  CCn1cncc1Cn1c(Cc2ccc(-c3cccc(OCc4ccc(C#N)cc4F)n3)cc2C#N)nc2ccc(C(=O)O)cc21 [Example 522]                nM              137
7  N#Cc1ccc(COc2cccc(-c3cc(F)c(Cc4nc5ccc(C(=O)O)cc5n4CC4(COC(F)F)CC4)cc3F)n2)c(F)c1 [Example 730]                nM             0.98

###

molecular target: GLP-1R (Homo sapiens); assay: GLP-1R activation: cAMP increase in CHO cells stably expressing GLP-1R; type: cell-based; conditions: cAMP increase, CHO cells stably expressing GLP-1R, 10 point dose response, 30 minutes incubation; read-out: EC50
pEC50: −log10 of the molar value.
Criterion: pEC50 meeting or surpassing 8. Met: 1. Not met: 0.

> print(dat)
                                   compound      target.under.test  group.label
1  COc1cc(C#N)ccc1COc1cccc(-c2cc(F)c(Cc3nc4ccc(C(N)=O)cc4n3CC3(CC#N)CC3)cc2F)n1 [Example 598]  GLP-1R (Homo sapiens)            1
2  N#Cc1ccc(COc2cccc(-c3cc(F)c(Cc4nc5c(F)cc(C(=O)O)cc5n4CCOC(F)F)cc3F)n2)c(F)c1 [Example 892]  GLP-1R (Homo sapiens)            1
3  N#Cc1ccc(COc2nccc(-c3ccc(Cc4nc5ccc(C(=O)O)cc5n4CC4(CF)CC4)c(F)c3)n2)c(F)c1 [Example 344]  GLP-1R (Homo sapiens)            1
4  CC(C)(O)[C@H](F)Cn1c(Cc2ccc(-c3cccc(OCc4ccc(C#N)cc4F)n3)cc2F)nc2ccc(C(=O)O)cc21 [Example 278]  GLP-1R (Homo sapiens)            0
5  N#Cc1ccc(COc2cccc(-c3cc(F)c(Cc4nc5c(F)cc(C(=O)O)cc5n4CC45CC(CO4)C5)cc3F)n2)c(F)c1 [Example 649]  GLP-1R (Homo sapiens)            1
